# system: human cannabinoid CB2 receptor (Homo sapiens, UniProt P34972)
# Sequence (P34972 whole entry): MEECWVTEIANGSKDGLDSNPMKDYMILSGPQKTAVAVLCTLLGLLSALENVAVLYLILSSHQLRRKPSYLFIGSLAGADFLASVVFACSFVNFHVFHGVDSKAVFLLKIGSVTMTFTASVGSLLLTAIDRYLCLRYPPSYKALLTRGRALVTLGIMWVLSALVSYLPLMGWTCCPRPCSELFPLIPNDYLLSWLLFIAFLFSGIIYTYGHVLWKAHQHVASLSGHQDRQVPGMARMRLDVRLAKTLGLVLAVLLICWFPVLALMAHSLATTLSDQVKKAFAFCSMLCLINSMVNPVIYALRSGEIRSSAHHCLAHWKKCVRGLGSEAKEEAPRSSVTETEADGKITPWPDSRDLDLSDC
# protocol details: Cannabinoid CB2 receptor agonist activity (yeast reporter assay, FDGlu fluorescence)
# Assay type: cell-based
# condition set: read-out: EC50 value at the cloned human cannabinoid CB2 receptor
Assign EC50 to each entry below.

Solved cases (7 shown):
>>> result("COc1ccccc1Nc1ncc(C(=O)N(C)Cc2ccccc2)c(C(F)(F)F)n1")
"300 to 1000 nM"
>>> result("O=C(NCC1CCOCC1)c1cnc(Nc2cccc(Cl)c2F)nc1C(F)(F)F")
"20 to 300 nM"
>>> result("O=C(NCc1ccc(F)cc1)c1cnc(Nc2cccc(Br)c2)nc1C(F)(F)F")
"20 to 300 nM"
>>> result("N#Cc1ccc(Nc2ncc(C(=O)NCC3CCCCC3)c(C(F)(F)F)n2)cc1")
"20 to 300 nM"
>>> result("O=C(NC1CCC1)c1cnc(Nc2cccc(Br)c2)nc1C(F)(F)F")
"20 to 300 nM"
>>> result("O=C(NCc1ccc(F)cc1)c1cnc(Nc2cccc(Cl)c2)nc1C(F)(F)F")
"20 to 300 nM"
>>> result("O=C(NCC1CCCC1)c1cnc(Nc2ccc(C(F)(F)F)c(F)c2)nc1C(F)(F)F")
"300 to 1000 nM"

# evaluate next
IN: // query EC50 value for entry COc1cccc(Nc2ncc(C(=O)NCC3CCCCC3)c(C(F)(F)F)n2)c1
OUT: 20 to 300 nM

###

# system: human cannabinoid CB2 receptor (Homo sapiens, UniProt P34972)
# protocol details: Cannabinoid CB2 receptor agonist activity (yeast reporter assay, FDGlu fluorescence)
# Assay type: cell-based
# condition set: EC50 value at the cloned human cannabinoid CB2 receptor
pEC50: −log10 of the molar value.
assay endpoint: pEC50

Solved cases (4 shown):
>>> result("O=C(NCC1CCOCC1)c1cnc(Nc2cccc(F)c2F)nc1C(F)(F)F [Example 107]")
"6.00 to 6.52"
>>> result("COc1cccc(Nc2ncc(C(=O)NC3CCC3)c(C(F)(F)F)n2)c1 [Example 53]")
"6.52 to 7.70"
>>> result("O=C(NCC1CCC1)c1cnc(Nc2ccccc2Cl)nc1C(F)(F)F [Example 257]")
"6.00 to 6.52"
>>> result("O=C(c1cnc(Nc2cc(Cl)ccc2Cl)nc1C(F)(F)F)N1CCOCC1 [Example 9]")
"6.52 to 7.70"

IN: // query pEC50 value for entry Cc1ccc(Nc2ncc(C(=O)NCC3CCOCC3)c(C(F)(F)F)n2)cc1Cl [Example 184]
OUT: 6.52 to 7.70

###

# system: human cannabinoid CB2 receptor (Homo sapiens, UniProt P34972)
# protocol details: Cannabinoid CB2 receptor agonist activity (yeast reporter assay, FDGlu fluorescence)
# Assay type: cell-based
# condition set: EC50 value at the cloned human cannabinoid CB2 receptor
Assign EC50 to each entry below.

>>> result("O=C(NCC1CCSCC1)c1cnc(Nc2ccc(Cl)cc2Cl)nc1C(F)(F)F")
"0.02 to 0.3 µM"
>>> result("O=C(NCC1CCC1)c1cnc(Nc2ccc(F)c(Cl)c2)nc1C(F)(F)F")
"0.02 to 0.3 µM"
>>> result("O=C(NCc1ccnc(F)c1)c1cnc(Nc2ccc(Cl)cc2Cl)nc1C(F)(F)F")
"0.02 to 0.3 µM"
>>> result("CN(Cc1ccccc1)C(=O)c1cnc(Nc2cccc(F)c2)nc1C(F)(F)F")
"0.3 to 1 µM"

IN: // query EC50 value for entry O=C(NCC1CCCCC1)c1cnc(Nc2cc(F)cc(F)c2)nc1C(F)(F)F
OUT: 0.02 to 0.3 µM

###

# system: human cannabinoid CB2 receptor (Homo sapiens, UniProt P34972)
# protocol details: Cannabinoid CB2 receptor agonist activity (yeast reporter assay, FDGlu fluorescence)
# Assay type: cell-based
# condition set: EC50 value at the cloned human cannabinoid CB2 receptor
# Experimental: Determination of Cannabinoid CB2 Receptor Agonist Activity The cannabinoid CB2 receptor agonist activity of the compounds of formula (I)-(IV) was determined in accordance with the following experimental method. […] Agonists were prepared as 10 mM stocks in DMSO. […] Fluorescence was plotted against compound concentration and iteratively curve fitted using a four parameter fit to generate a concentration effect value. Efficacy (Emax) was calculated from the equation […]
assay endpoint: EC50

>>> result("O=C(c1cnc(Nc2cc(Cl)cc(Cl)c2)nc1C(F)(F)F)N1CCOCC1")
"20 to 300 nM"
>>> result("O=C(NCc1ccc(F)cc1)c1cnc(Nc2cc(Cl)ccc2Cl)nc1C(F)(F)F")
"20 to 300 nM"
>>> result("O=C(NCC1CCCCC1)c1cnc(Nc2cc(C(F)(F)F)cc(C(F)(F)F)c2)nc1C(F)(F)F")
"300 to 1000 nM"
>>> result("O=C(NCC1CCCCC1)c1cnc(Nc2ccc(Br)cc2Cl)nc1C(F)(F)F")
"20 to 300 nM"
>>> result("CN(Cc1ccccc1)C(=O)c1cnc(Nc2cccc(Cl)c2Cl)nc1C(F)(F)F")
"20 to 300 nM"
>>> result("O=C(NCC1CCC1)c1cnc(Nc2cc(F)cc(F)c2)nc1C(F)(F)F")
"20 to 300 nM"
>>> result("O=C(NCC1CCC1)c1cnc(Nc2cccc(Cl)c2)nc1C(F)(F)F")
"20 to 300 nM"
>>> result("COc1cccc(Nc2ncc(C(=O)NCc3ccccc3)c(C(F)(F)F)n2)c1")
"300 to 1000 nM"

List EC50 for every entry below, keeping the order given.
1. Cc1ccc(Cl)cc1Nc1ncc(C(=O)NCC2CCCC2)c(C(F)(F)F)n1
2. O=C(NCC1CCOCC1)c1cnc(Nc2ccc(C(F)(F)F)c(F)c2)nc1C(F)(F)F
3. O=C(NCc1ccnc(F)c1)c1cnc(Nc2cc(Cl)ccc2Cl)nc1C(F)(F)F
4. O=C(NC1CCCC1)c1cnc(Nc2ccc(Cl)cc2Cl)nc1C(F)(F)F
5. O=C(NCC1CCOCC1)c1cnc(Nc2cccc(Cl)c2)nc1C(F)(F)F
6. O=C(NCC1CCCCC1)c1cnc(Nc2cc(F)cc(C(F)(F)F)c2)nc1C(F)(F)F

OUT:
20 to 300 nM
20 to 300 nM
20 to 300 nM
20 to 300 nM
20 to 300 nM
300 to 1000 nM

The reported numbers originate from patent US20080132505A1.
